# Test system: Fibroblast
# Assay Summary: Incucyte cell viability with human fibroblast; note: unitless GR value; below 1 slowed growth and below 0 cell loss
# Assay type: toxicity, cell-based
# Conditions Used: 0 h, 10 µM, compound concentration 10 uM, replicate number 2
Short version: Growth Rate at least -0.9 is Met, less is Not met.

Worked cases, answers included:
>  <Compound>
CN1C(=O)c2ccccc2N(C)c2nc(Nc3cnn(C4CCNCC4)c3)ncc21

>  <Tgt>
Fibroblast

>  <Qualitative Label>
Met

$$$$
>  <Compound>
Cc1csc(S(=O)(=O)N(CC(C)C)c2cc3c(cc2OCc2ccc(C(=O)O)cc2)CCC3)n1

>  <Tgt>
Fibroblast

>  <Qualitative Label>
Not met

$$$$
>  <Compound>
Cc1nnc2n1-c1sc3c(c1C(c1ccccc1Cl)=NC2)CC(C(=O)N1CCOCC1)C3 (stereo not drawn)

>  <Tgt>
Fibroblast

>  <Qualitative Label>
Met

$$$$
>  <Compound>
CN1CCC(C#N)(NC(=O)[C@@H](NC(=O)N2CCOCC2)C(C)(C)C)CC1

>  <Tgt>
Fibroblast

>  <Qualitative Label>
Not met

$$$$
>  <Compound>
CC(F)(F)CN1C(=O)c2[nH]nc(-c3cccc4[nH]c(=O)oc34)c2C1c1ccc(Oc2cc(C(F)(F)F)cc(C(F)(F)F)c2)cc1 (stereo not drawn)

>  <Tgt>
Fibroblast

>  <Qualitative Label>
Not met

$$$$
>  <Compound>
CN1[C@@H](CC(=O)c2ccccc2)CCC[C@H]1C[C@H](O)c1ccccc1.Cl [LOBELINE HYDROCHLORIDE]

>  <Tgt>
Fibroblast

>  <Qualitative Label>
Met

$$$$

Query string: Evaluate CCOCCn1cc(C(=O)Nc2ccc(-n3nc(-c4cccnc4)cc3C(F)(F)F)cn2)ccc1=O : Growth Rate at minimum -0.9?
Result string: Met

Query string: Evaluate Cn1c(SCc2ccc(C(C)(C)C)cc2)nc(N)cc1=O : Growth Rate at minimum -0.9?
Result string: Not met

====

# Tested on: HEK-293T
# Assay Summary: Incucyte cell viability with HEK293T; note: unitless GR value; below 1 slowed growth and below 0 cell loss
# Format: toxicity, cell-based
# Conditions Used: human, 24 h, 10 µM, compound concentration 10 uM, replicate number 1
Label satisfied when Growth Rate is strictly below 0.9; at or above that, label not satisfied.

Worked cases, answers included:
>  <Compound>
COc1ccc(CC[C@@H](OC(=O)[C@@H]2CCCCN2C(=O)[C@H](c2cc(OC)c(OC)c(OC)c2)C2CCCCC2)c2cccc(OCCN3CCOCC3)c2)cc1OC

>  <Qualitative Label>
satisfied

$$$$
>  <Compound>
Cl.Cl.O=C1c2ccccc2C(Cc2ccncc2)(Cc2ccncc2)c2ccccc21

>  <Qualitative Label>
satisfied

$$$$
>  <Compound>
O=C(Nc1ccc(C(O)(C(F)(F)F)C(F)(F)F)cc1)c1ccc(C(F)(F)F)cc1

>  <Qualitative Label>
satisfied

$$$$
>  <Compound>
CCOCCn1cc(C(=O)Nc2ccc(-n3nc(-c4cccnc4)cc3C(F)(F)F)cn2)ccc1=O

>  <Qualitative Label>
satisfied

$$$$
>  <Compound>
Cc1ccccc1Oc1cc(-n2c(=O)cc(C(F)(F)F)[nH]c2=O)c2ccccc2c1Cl

>  <Qualitative Label>
satisfied

$$$$
>  <Compound>
CC/C(=C(\c1ccc(O)cc1)c1ccc(OCCN(C)C)cc1)c1ccccc1

>  <Qualitative Label>
satisfied

$$$$

Query string: Please check: Growth Rate for COc1ccc(C(F)(F)F)cc1NC(=O)Nc1ccc(Oc2cc(C)nc(N)n2)c2ccccc12 , strictly under 0.9 or not?
Result string: satisfied

Query string: Please check: Growth Rate for CN(c1ccc(C(F)(F)F)cc1)S(=O)(=O)c1ccc(C(=O)Nc2nc(-c3ccccn3)cs2)cc1 , strictly under 0.9 or not?
Result string: satisfied

Query string: Please check: Growth Rate for CC(Oc1cc(-c2cnn(C3CCNCC3)c2)cnc1N)c1c(Cl)ccc(F)c1Cl (stereo not drawn) , strictly under 0.9 or not?
Result string: satisfied

Query string: Please check: Growth Rate for CCn1c(CNC(=O)c2ncc(C)nc2N)[n+](CC)c2ccc(C(=O)N(C)CCN(C)C)cc21.Cl.Cl.[Cl-] , strictly under 0.9 or not?
Result string: not satisfied

Query string: Please check: Growth Rate for CS(=O)(=O)NCC[C@H](NC(=O)c1cncc2c1cnn2-c1ccc(F)cc1)c1ccnc(S(C)(=O)=O)c1 , strictly under 0.9 or not?
Result string: not satisfied

Query string: Please check: Growth Rate for CC#CC(=O)N1CCN(c2nc(-c3ccc(Oc4ccccc4)cc3)c(C(N)=O)s2)CC1 , strictly under 0.9 or not?
Result string: satisfied

Query string: Please check: Growth Rate for COc1cc(Oc2nc(-c3ccc(NC(=O)C4CCOC4)cc3)nn3c(C)nc(C)c23)cc(OC)c1OC (stereo not drawn) , strictly under 0.9 or not?
Result string: not satisfied

Query string: Please check: Growth Rate for Cc1cc(Nc2ncc(Cl)c(Nc3ccccc3S(=O)(=O)C(C)C)n2)c(OC(C)C)cc1C1CCNCC1 , strictly under 0.9 or not?
Result string: satisfied

Query string: Please check: Growth Rate for Cl.O=C(c1ccc(-c2ccc(Cl)cc2)o1)N(Cc1ccccn1)c1ccc(N2CCNCC2)cc1 , strictly under 0.9 or not?
Result string: satisfied

Query string: Please check: Growth Rate for CC(C)Oc1ccc(-c2cnc3c(-c4ccnc5ccccc45)cnn3c2)cc1 , strictly under 0.9 or not?
Result string: satisfied

Query string: Please check: Growth Rate for COc1cc(C(=O)NCCOCCOCCOCCC(=O)Nc2cccc3c2C(=O)N(C2CCC(=O)NC2=O)C3=O)ccc1Nc1ncc(C(F)(F)F)c(Oc2cccc3c2C(=O)CC3)n1 (stereo not drawn) , strictly under 0.9 or not?
Result string: satisfied

====

# Tested on: U2OS
# Assay Summary: Incucyte cell viability with U2OS; note: unitless GR value; below 1 slowed growth and below 0 cell loss
# Assay type: toxicity, cell-based
# Conditions Used: human, 24 h, 10 µM, compound concentration 10 uM, replicate number 2
Label yes when Growth Rate is strictly below 0.8; at or above that, label no.

Query string: Please check: Growth Rate for O=C1NC(c2cccc([N+](=O)[O-])c2)=CCN1c1ccccc1O [ICILLIN] , strictly under 0.8 or not?
Result string: no

Query string: Please check: Growth Rate for CS(=O)(=O)NC(=O)CCC/C=C\C[C@H]1C(=O)C[C@@H](O)[C@@H]1/C=C/[C@@H](O)COc1ccccc1 [SULPROSTONE] , strictly under 0.8 or not?
Result string: no

Query string: Please check: Growth Rate for CNC1(C)C2CCC(C2)C1(C)C.Cl (stereo not drawn) [MECAMYLAMINE HYDROCHLORIDE] , strictly under 0.8 or not?
Result string: yes

Query string: Please check: Growth Rate for CCCCc1c(-c2ccccc2)nc(N)nc1-c1ccc(OCc2ccccc2)c(F)c1F , strictly under 0.8 or not?
Result string: yes

====

# Test system: Fibroblast
# Assay Summary: Incucyte cell viability with human fibroblast; note: unitless GR value; below 1 slowed growth and below 0 cell loss
# Type: toxicity, cell-based
# Conditions Used: 6 h, 10 µM, compound concentration 10 uM, replicate number 2
Recorded Endpoint: Growth Rate
Enter the number alone.

For orientation, consider the following solved cases.
>  <Compound>
O=C(Nc1ccc(C(O)(C(F)(F)F)C(F)(F)F)cc1)c1ccc(C(F)(F)F)cc1

>  <Tgt>
Fibroblast

>  <Growth Rate>
-0.08

$$$$
>  <Compound>
CN(CCCCCCC1=C(c2cc(F)cc(F)c2)CCCc2cc(O)ccc21)CCCCS(=O)(=O)CCCC(F)(F)F

>  <Tgt>
Fibroblast

>  <Growth Rate>
-1

$$$$
>  <Compound>
CCN1C(=O)C(c2cccc(C(=O)O)c2)C(=O)N(c2ccccc2)c2cc(C(F)(F)F)ccc21 (stereo not drawn)

>  <Tgt>
Fibroblast

>  <Growth Rate>
-0.94

$$$$
>  <Compound>
CCOc1ccc(S(=O)(=O)Nc2ccc(Cl)cc2C#Cc2cnc(C(=O)[O-])cc2OC)c2ncccc12.[K+]

>  <Tgt>
Fibroblast

>  <Growth Rate>
0.49

$$$$
>  <Compound>
CC(C)(C)c1cnc(CSc2cnc(NC(=O)C3CCNCC3)s2)o1

>  <Tgt>
Fibroblast

>  <Growth Rate>
-0.1

$$$$
>  <Compound>
CCOC(=O)CS(=O)(=O)c1ccc([C@@H](CO)NC(=O)c2cc3c(Cl)c(Cl)c(C)cc3n2C)cc1

>  <Tgt>
Fibroblast

>  <Growth Rate>
-1

$$$$

Query string: Find Growth Rate (Fibroblast) for the entry CN1CCN(c2ccc(C(=O)Nc3n[nH]c4ccc(Cc5cc(F)cc(F)c5)cc34)c(NC3CCOCC3)c2)CC1
Result string: -1

Query string: Find Growth Rate (Fibroblast) for the entry C/C=C1\C(=O)CC2C3CCC4=CC(=O)CC[C@]4(C)C3CC[C@]12C (stereo partly drawn)
Result string: 0.33

====

# Test system: HEK-293T
# Assay Summary: Incucyte cell viability with HEK293T; note: unitless GR value; below 1 slowed growth and below 0 cell loss
# Format: toxicity, cell-based
# Conditions Used: human, 24 h, 10 µM, compound concentration 10 uM, replicate number 2
Short version: Growth Rate at least -0.1 is Met, less is Not met.

>  <Molecule>
Cn1ncc(-c2nc(N[C@H]3CC[C@H](N)CC3)ncc2Cl)c1CC1CC1

>  <Qualitative Label>
Met

$$$$
>  <Molecule>
Cc1c(N2CCCC2)nc2ccc(Br)cc2c1C(=O)NC[C@H](CCC(=O)O)c1ccccc1Cl

>  <Qualitative Label>
Met

$$$$
>  <Molecule>
CCN1CCN(Cc2ccc(NC(=O)c3ccc(C)c(NC(=O)c4cncc(-c5cccs5)c4)c3)cc2C(F)(F)F)CC1

>  <Qualitative Label>
Not met

$$$$
>  <Molecule>
CSc1ccc(C[C@@H](C)C(=O)O)cc1Nc1nc(N2CC[C@H](N(C)C)C2)cc(C(F)F)c1C#N.O=C(O)C(F)(F)F

>  <Qualitative Label>
Met

$$$$
>  <Molecule>
CC(C)(O)c1ccc2c(c1)ncn2-c1cccc(-c2ccccc2C#N)c1

>  <Qualitative Label>
Met

$$$$

Query string: Evaluate Cc1cc(Nc2ncc(Cl)c(Nc3ccccc3S(=O)(=O)C(C)C)n2)c(OC(C)C)cc1C1CCNCC1 : Growth Rate at minimum -0.1?
Result string: Not met

Query string: Evaluate CCOC(=O)c1cnn(-c2ccc(NC(=O)C(Cl)=C(Cl)Cl)cc2)c1C(F)(F)F : Growth Rate at minimum -0.1?
Result string: Not met

Query string: Evaluate FC(F)(F)c1ccc(Nc2ncnc3cc(-c4ncccc4C(F)(F)F)ccc23)cc1 : Growth Rate at minimum -0.1?
Result string: Met
